assay: gradient 5% acetonitrile 3 min, to 50% in 2 min, to 85% in 15 min, held 3 min, 100 µL/min; settings: column: Zorbax Extend-C18 2.1 x 50 mm; eluents: water / acetonitrile, 0.1% formic acid
RP-LC retention time overview
Just the number in s, nothing appended.

Answered examples (2):
# MOLECULE, READING_UNIT, TEST_RESULT
data = [
    ("COc1ccccc1Cc1noc(C2CN(C(=O)c3cc(C4CC4)on3)C2)n1", "s", 876),
    ("C=C(C)COc1ccc2oc(C)c(C(=O)O)c2c1", "s", 879),
]

Continue with the next molecule.
Report RP-LC retention time for CCOc1ccc(-c2noc(CN3N=NC4C(=O)N(c5cccc(OC)c5)C(=O)C43)n2)cc1OC (stereo not drawn)
917
